# measured.target: UniProt P14842
# Sequence (P14842 whole entry): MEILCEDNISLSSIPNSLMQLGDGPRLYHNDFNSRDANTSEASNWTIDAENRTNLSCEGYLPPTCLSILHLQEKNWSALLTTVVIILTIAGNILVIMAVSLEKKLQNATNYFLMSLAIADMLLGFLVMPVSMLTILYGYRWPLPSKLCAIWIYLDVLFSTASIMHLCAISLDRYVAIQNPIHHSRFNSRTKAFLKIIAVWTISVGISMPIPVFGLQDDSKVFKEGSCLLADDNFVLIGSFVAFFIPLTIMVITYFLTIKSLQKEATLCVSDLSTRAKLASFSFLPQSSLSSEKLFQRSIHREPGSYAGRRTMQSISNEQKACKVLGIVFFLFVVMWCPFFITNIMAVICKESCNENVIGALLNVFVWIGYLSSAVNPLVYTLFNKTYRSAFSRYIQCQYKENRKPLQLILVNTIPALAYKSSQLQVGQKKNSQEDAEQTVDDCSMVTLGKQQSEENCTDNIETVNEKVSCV
# assay.name: Binding test on [3H] ketanserin (serotonin 2 receptor)
# condition.summary: [3H] ketanserin 0.3 nM, receptor fraction of rat cerebral cortex; read-out: 5HT2
Consider the following molecules; for each one, report its log10(Ki).
A value of 2 here means Ki of 100 in nM, since values are log10.

Qu. Could you tell me which log10(Ki) is on file for O=c1ccc(C(O)c2ccc3c(c2)N(C2CCN(CCc4ccc(F)cc4)CC2)CC3)c[nH]1 (stereo not shown) ?
Ans. -0.48

Qu. Another: COc1ccc(CC2CN(C3CCN(CCc4ccc(F)cc4)CC3)c3ccccc32)cc1 (stereo not shown)
Ans. 0.00

Qu. Continue with COc1ccc2c(c1)N(C1CCN(CCc3ccc(F)cc3)C1)CC2 (stereo not shown)
Ans. 1.77

Qu. // repeat for N#Cc1ncc(CCN2CCC(N3CCc4ccccc43)CC2)s1 and report
Ans. 1.93

Qu. Query OC(c1ccc2c(c1)N(C1CCN(CCc3ccc(F)cc3)CC1)CC2)c1cscn1 (stereo not shown) next
Ans. 0.06

Qu. Okay, and O=C(Cc1ccc2ccn(C3CCN(CCc4ccc(F)cc4)CC3)c2c1)N1CCC(O)CC1 ?
Ans. 1.78

Qu. Follow-up item: O/N=C/c1ccc(CCN2CCC(N3CCc4ccccc43)CC2)cc1
Ans. 0.96

Qu. And CC(F)c1ccc2c(c1)N(C1CCN(CCc3ccc(F)cc3)CC1)CC2 (stereo not shown) ?
Ans. 0.53

Qu. Same again, this time with NC(=O)Cc1ccc2c(c1)N(C1CCN(CCc3ccc(F)cc3F)CC1)CC2
Ans. 0.88

Qu. Proceed to CCN1CCC(N2CC(c3ccc(OC)cc3)c3ccccc32)CC1 (stereo not shown)
Ans. 3.22

Qu. Cool, now Fc1ccc(CCN2CCC(N3CCc4ccc(F)cc43)CC2)cc1
Ans. 1.20

Qu. For Fc1ccc(CCN2CCC(N3CCc4ccc(Cc5nccs5)cc43)CC2)cc1 then?
Ans. -0.05

Qu. Queued: FCc1ccc2c(c1)N(C1CCN(CCc3ccc(F)cc3)CC1)CC2
Ans. 0.53

Qu. What about this molecule? Fc1ccc(CCN2CCC(CN3CCc4ccccc43)CC2)cc1
Ans. 1.14

Qu. For OCCOc1ccc(CCN2CCC(N3CCc4ccccc43)CC2)cc1 then?
Ans. 1.29

Qu. Follow-up item: CS(=O)(=O)c1ccc2c(c1)N(C1CCN(CCc3ccc(F)cc3)CC1)CC2
Ans. 0.67
